measured_on: Ba/F3 cells transformed with human Tel-TrkA (Homo sapiens, UniProt P04629)
Construct: expressed in transfected cells; host or cells: Ba/F3 murine hematopoietic progenitor cells (luciferase expressing); the other entry of the earlier key: ETV6 (P41212, Transcription factor ETV6)
Sequence (P04629 510-796 limits assumed): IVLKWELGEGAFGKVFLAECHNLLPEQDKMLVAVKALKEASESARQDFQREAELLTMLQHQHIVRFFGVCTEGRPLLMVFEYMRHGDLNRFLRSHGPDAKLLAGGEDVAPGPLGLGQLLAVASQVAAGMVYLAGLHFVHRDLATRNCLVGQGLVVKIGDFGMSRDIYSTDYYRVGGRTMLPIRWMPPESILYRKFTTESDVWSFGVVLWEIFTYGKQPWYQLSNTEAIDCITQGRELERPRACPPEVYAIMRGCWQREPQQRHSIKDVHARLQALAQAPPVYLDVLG
assay_info: Proliferation of Ba/F3 cells transformed with human Tel-TrkA (Ba/F3 Tel-TrkA)
Assay type: cell-based
study_conditions: Table 1; 48 hours, Bright Glo luminescence; read-out: Ba/F3 Tel-TrkA
assay_readout: IC50 (nM)

1) COC(=O)NC(=O)c1cnc2ccc(N3CC(F)(F)C[C@@H]3c3cccc(F)c3)nn12 [X-249] = 18

(I) O=C(CCc1cccc(N2CCOCC2)n1)c1cnc2ccc(N3CCC[C@@H]3c3cccc(F)c3)nn12 [X-129]
(II) COCC(=O)Nc1cnc2ccc(N3CCC[C@@H]3c3cccc(F)c3)nn12 [X-200]
(III) O=C(NOCC1CC1)c1cnc2ccc(N3CCC[C@@H]3c3cccc(F)c3)nn12 [X-143]
stdin: Rank the items in ascending order with respect to IC50. Kindly provide the labels arranged according to the requested ordering.
stdout: II, III, I
